Values were extracted from the supplement of paper PMC6555819.

Test system: PPARg:RXRa (NR concentration 180 nM, RXRa partner concentration 90 nM)
test: PBM binding z-score (relative to random genomic background probes); higher = stronger binding; sequences stand for … in GC…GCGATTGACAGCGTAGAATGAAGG
Given measured PBM binding z-score, output met if it is greater than or equal to 4 and not met if not.

Worked examples follow.
1) ACAGACAGGTGATGAAGGCAACTCAGGCTATCAT = not met
2) ATCTCTAGGTAAGACTCAGTTCTGTGAAGAACGC = not met
3) TAGCCTAGGTCAGGCGGGCCAGTATAGTGTCGGC = not met

Here is the next item to consider.
Determine whether this sequence has PBM binding z-score no lower than 4: "CCAACTAGGTCACGAAAGGTCAAAGTCGAATGAC"
met

====

Test system: LXRb:RXRa (NR concentration 270 nM, RXRa partner concentration 90 nM)
test: PBM binding z-score (relative to random genomic background probes); higher = stronger binding; sequences stand for … in GC…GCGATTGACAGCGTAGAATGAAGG
A collection of sequences and their measured PBM binding z-score
Keep the answer to the number alone.

1. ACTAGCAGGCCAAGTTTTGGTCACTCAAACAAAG = -0.34
2. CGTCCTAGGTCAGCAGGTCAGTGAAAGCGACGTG = 1.6
3. TTACCAATGTGAAAGGTCGTTGATGCACGCCTTG = 1.91
4. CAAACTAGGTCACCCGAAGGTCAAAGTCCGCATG = 5.07

Need PBM binding z-score, item "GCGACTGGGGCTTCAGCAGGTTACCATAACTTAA"
0.63

Repeat with "GCTAGTAGTTGAAAGGGCAACCGAATGATTCTCG"
0.605

Moving on to "AGAACGAGGGCAGTGAGTTGATAGCACGGGTGGC"
-0.705

====

PBM binding z-score values for the sequences below.
Tested on: RARb:RXRa (NR concentration 270 nM, RXRa partner concentration 90 nM)
test: PBM binding z-score (relative to random genomic background probes); higher = stronger binding; sequences stand for … in GC…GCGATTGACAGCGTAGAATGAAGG
// return a plain number; no unit text

Example results:
1) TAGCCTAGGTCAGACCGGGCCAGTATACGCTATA = 3
2) TGTCAAAGTTCAAAGGTAACGGAAGTATCCACAC = 5.07

Name the reported PBM binding z-score value associated with the sequence "GCTATTAGTTGAAAGGGCAAACGAATGATTCTCG"
2.04

Can you handle "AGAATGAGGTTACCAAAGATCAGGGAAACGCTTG" next?
2.03

Another sequence: "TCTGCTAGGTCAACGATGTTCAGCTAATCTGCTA"
4.15

====

System: LXRa:RXRa (NR concentration 270 nM, RXRa partner concentration 90 nM)
test: PBM binding z-score (relative to random genomic background probes); higher = stronger binding; sequences stand for … in GC…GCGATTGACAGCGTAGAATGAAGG
observed property: PBM binding z-score
Output spec: single numeric token, no unit.

Solved cases below.
1) GGAACGAGGGCAAAGTTGATAGTATCTGTCGACG = 0.763
2) GCATATAGGTAATACAAGCTGAAAGTCCGATTGT = -0.314
3) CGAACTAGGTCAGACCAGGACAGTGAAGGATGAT = 1.04
4) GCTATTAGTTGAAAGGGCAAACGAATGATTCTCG = 0.93
5) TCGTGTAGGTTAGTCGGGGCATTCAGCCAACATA = 0.838
6) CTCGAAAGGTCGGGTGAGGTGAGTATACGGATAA = 2.3
7) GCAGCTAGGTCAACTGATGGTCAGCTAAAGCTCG = 2.29
8) AGGACGAGGGCACGCTGAGTTGATAGCAGAGTAG = 0.423

Param item = "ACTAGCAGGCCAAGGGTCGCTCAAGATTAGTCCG" ; retrieve measured PBM binding z-score.
0.0805

Lookup "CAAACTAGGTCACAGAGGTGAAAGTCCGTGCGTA"
4.38

And the next one, "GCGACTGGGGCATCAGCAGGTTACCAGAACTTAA" ?
-0.156

Further, for "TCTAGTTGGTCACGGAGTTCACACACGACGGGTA" ?
2.17

Now the same for "CCTGCTGGGCCATCAGGTCATTGATATCAACGTT"
0.86

Query "GCTGCTAGGTCAACTGTTGGTCAGCTAAAGCTCG" next
2.97
